- assay.target: T1, Domain I+II of 3D7 PfAMA1 (residue 104-442), immobilised for SPR (Plasmodium falciparum 3D7, UniProt Q7KQK5 104-442)
- T1 sequence (looked up): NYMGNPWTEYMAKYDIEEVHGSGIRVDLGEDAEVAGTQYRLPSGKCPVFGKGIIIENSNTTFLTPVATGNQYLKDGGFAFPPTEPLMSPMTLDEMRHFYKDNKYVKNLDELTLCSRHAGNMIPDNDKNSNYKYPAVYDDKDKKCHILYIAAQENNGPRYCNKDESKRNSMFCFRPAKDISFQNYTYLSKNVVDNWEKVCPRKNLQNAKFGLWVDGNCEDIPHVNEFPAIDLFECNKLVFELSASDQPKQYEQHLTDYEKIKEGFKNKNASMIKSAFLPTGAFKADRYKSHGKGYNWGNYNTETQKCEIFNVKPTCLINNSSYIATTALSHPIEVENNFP
- assay: SPR
- settings: both partners purified
measured.endpoint: Kd (nM)

- binder: "Ac-FLPLFSKFGSRM-NH2 (source: synthetic peptide (Mimotopes)) [R1_(5-16)]"
  measured.endpoint: "Kd"
  value.unit: "nM"
  observed.value: 990
- binder: "VFAEFLPLFSKFGSRMHILK [Native R1 peptide]"
  measured.endpoint: "Kd"
  value.unit: "nM"
  observed.value: 110
- binder: "Ac-FLPLFSKFGSR-NH2 (source: synthetic peptide (Mimotopes)) [R1_(5-15)]"
  measured.endpoint: "Kd"
  value.unit: "nM"
  observed.value: 4600
- binder: "Ac-EFLPLFSKFGSRMH-NH2 (source: synthetic peptide (Mimotopes)) [R1_(4-17)]"
  measured.endpoint: "Kd"
  value.unit: "nM"
  observed.value: 880
